- SYSTEM_UNDER_TEST: Msep5-HT7S receptor (Mythimna separata, UniProt A0AAD7YHG5, DEL320-414)
- Sequence (A0AAD7YHG5 entry or part of it DEL320-414): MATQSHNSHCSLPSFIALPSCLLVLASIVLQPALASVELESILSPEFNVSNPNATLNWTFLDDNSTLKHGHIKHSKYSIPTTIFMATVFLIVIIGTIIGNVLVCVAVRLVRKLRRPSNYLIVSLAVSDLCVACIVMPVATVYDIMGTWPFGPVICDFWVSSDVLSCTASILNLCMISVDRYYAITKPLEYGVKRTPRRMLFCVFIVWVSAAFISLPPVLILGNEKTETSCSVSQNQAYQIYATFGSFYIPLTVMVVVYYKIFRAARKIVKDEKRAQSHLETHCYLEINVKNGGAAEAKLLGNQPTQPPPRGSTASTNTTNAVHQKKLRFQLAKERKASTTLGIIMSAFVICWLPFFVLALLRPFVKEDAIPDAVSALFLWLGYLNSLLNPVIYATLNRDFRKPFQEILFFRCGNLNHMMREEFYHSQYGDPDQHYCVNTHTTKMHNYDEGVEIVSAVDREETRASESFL
- ASSAY_EXPLANATION: cAMP assay, antagonist block of 5-HT-induced response in HEK293 cells expressing Msep5-HT7S
- Type: cell-based
- SETUP_CONDITIONS: IC50, 5-HT7S, against 5 μM 5-HT, HEK-293 cells
Where a name gives a salt, the structure may show the parent alone.
ASSAY_READOUT: IC50 (µM)

{"COMPOUND": "O=C(c1ccc(F)cc1)C1CCN(CCn2c(=O)[nH]c3ccccc3c2=O)CC1 [Ketanserin]", "ASSAY_READOUT": "IC50", "ENDPOINT_UNIT": "µM", "RESULT_VALUE": 84.9}
{"COMPOUND": "CC1CCN(CC[C@H]2CCCN2S(=O)(=O)c2cccc(O)c2)CC1 [SB-269970]", "ASSAY_READOUT": "IC50", "ENDPOINT_UNIT": "µM", "RESULT_VALUE": 67.8}
{"COMPOUND": "Cc1cccc(S(=O)(=O)N(C)[C@H](C)CCN2CCC(C)CC2)c1 [SB-258719]", "ASSAY_READOUT": "IC50", "ENDPOINT_UNIT": "µM", "RESULT_VALUE": 64}
{"COMPOUND": "CSc1ccc2c(c1)C(N1CCN(C)CC1)Cc1ccccc1S2 (stereo not shown) [Methiothepin, methiothepin mesylate]", "ASSAY_READOUT": "IC50", "ENDPOINT_UNIT": "µM", "RESULT_VALUE": 62.9}

====

- SYSTEM_UNDER_TEST: UniProt:A0AAD7YHG5
- ASSAY_EXPLANATION: cAMP assay, antagonist block of 5-HT-induced response in HEK293 cells expressing Msep5-HT7L
- Format: cell-based
- SETUP_CONDITIONS: 5-HT7L, against 5 μM 5-HT, HEK-293 cells; read-out: IC50
ASSAY_READOUT: IC50 (µM)

{"MOLECULE": "COc1ccccc1N1CCN(CCN(C(=O)C2CCCCC2)c2ccccn2)CC1 [WAY-100635]", "SYSTEM_UNDER_TEST": "UniProt:A0AAD7YHG5", "ASSAY_READOUT": "IC50", "RESULT_VALUE": 36.1}

====

Measured EC50 accompanies every entry in the list below.
- SYSTEM_UNDER_TEST: Msep5-HT7S receptor (Mythimna separata, UniProt A0AAD7YHG5, DEL320-414)
- ASSAY_EXPLANATION: cell-based
- Assay type: cell-based
- SETUP_CONDITIONS: EC50, 5-HT7S, cAMP production, HEK-293 cells

{"COMPOUND": "COc1ccc2[nH]cc(CCN)c2c1", "SYSTEM_UNDER_TEST": "Msep5-HT7S receptor (Mythimna separata, UniProt A0AAD7YHG5, DEL320-414)", "EC50 [µM]": 19.4}
{"COMPOUND": "CCCN(CCC)C1CCc2cccc(O)c2C1 (racemic)", "SYSTEM_UNDER_TEST": "Msep5-HT7S receptor (Mythimna separata, UniProt A0AAD7YHG5, DEL320-414)", "EC50 [µM]": 24.8}

====

- SYSTEM_UNDER_TEST: UniProt A0AAD7YHG5
- ASSAY_EXPLANATION: cAMP assay, agonist activation of Msep5-HT7L in stably transfected HEK293 cells
- Type: cell-based
- SETUP_CONDITIONS: 5-HT7L, cAMP production, HEK-293 cells; read-out: EC50

{"COMPOUND": "CC(N)Cc1c[nH]c2ccc(O)cc12.O=C(O)/C=C\\C(=O)O (stereo not drawn) [αm-5-HT, α-methylserotonin maleate]", "SYSTEM_UNDER_TEST": "UniProt A0AAD7YHG5", "ENDPOINT_UNIT": "µM", "EC50": 13.9}
